The origin of these recorded values is patent US9732075B2.

target: UniProtKB O43614; test: In vitro assay: intracellular calcium measurements (FLIPR), antagonistic activity; conditions: CHO cells expressing human orexin-2 receptor, orexin-A agonist, geometric mean, read-out: IC50 Ox2
Sequence (O43614 whole entry): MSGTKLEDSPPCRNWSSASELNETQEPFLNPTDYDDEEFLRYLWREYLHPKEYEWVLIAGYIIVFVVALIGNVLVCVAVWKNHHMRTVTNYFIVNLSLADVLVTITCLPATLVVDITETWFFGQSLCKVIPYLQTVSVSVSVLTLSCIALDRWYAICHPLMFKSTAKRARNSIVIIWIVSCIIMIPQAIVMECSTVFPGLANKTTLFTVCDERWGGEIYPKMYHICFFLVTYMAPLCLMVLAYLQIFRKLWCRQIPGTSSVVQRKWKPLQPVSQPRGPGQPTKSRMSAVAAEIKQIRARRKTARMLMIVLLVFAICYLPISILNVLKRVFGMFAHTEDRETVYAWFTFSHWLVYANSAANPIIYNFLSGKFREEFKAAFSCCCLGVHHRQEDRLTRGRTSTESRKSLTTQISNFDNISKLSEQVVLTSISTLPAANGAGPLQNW
pIC50: −log10 of the molar value.
attribute-measured: pIC50

>>> reported_measurement("C=C1C[C@@H](c2nc3cc(OC)ccc3[nH]2)N(C(=O)c2nc(C)sc2-c2ccc(Br)cc2)C1 [Ex. 6.22]")
7.72
>>> reported_measurement("C=C1C[C@@H](c2nc3cc(OC)ccc3[nH]2)N(C(=O)c2nc(C)sc2-c2ccccc2)C1 [Ex. 6.3]")
7.74
>>> reported_measurement("Cc1nc(C(=O)N2CCCC2c2nc3cc(Cl)c(C)cc3[nH]2)c(-c2ccccc2)s1 (stereo not drawn) [Ex. 1.126]")
7.62

---

biological target: human orexin-1 receptor (Homo sapiens (Human), UniProt O43613); assay: In vitro assay: intracellular calcium measurements (FLIPR), antagonistic activity; conditions: CHO cells expressing human orexin-1 receptor, orexin-A agonist, geometric mean, read-out: IC50 Ox1
Sequence (O43613 whole entry): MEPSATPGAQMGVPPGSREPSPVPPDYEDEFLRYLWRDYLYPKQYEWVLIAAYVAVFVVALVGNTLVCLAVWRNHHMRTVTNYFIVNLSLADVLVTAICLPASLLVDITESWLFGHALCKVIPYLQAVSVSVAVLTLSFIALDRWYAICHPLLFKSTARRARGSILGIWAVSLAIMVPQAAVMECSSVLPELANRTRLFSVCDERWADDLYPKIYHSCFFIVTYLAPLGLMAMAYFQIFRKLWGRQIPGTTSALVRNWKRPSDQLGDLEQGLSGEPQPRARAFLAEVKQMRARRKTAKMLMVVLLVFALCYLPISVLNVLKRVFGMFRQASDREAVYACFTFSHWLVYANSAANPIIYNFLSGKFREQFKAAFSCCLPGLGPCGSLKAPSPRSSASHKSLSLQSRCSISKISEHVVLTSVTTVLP
attribute-measured: IC50 (µM)

(a) Cc1nc(C(=O)N2CC[C@H](C)[C@H]2c2nc3c(Cl)cccc3[nH]2)c(-c2cc(F)cc(F)c2)s1
(b) Cc1ccc(-n2nccn2)c(C(=O)N2CCC[C@@]2(C)c2nc3c(Cl)cc(C(F)(F)F)cc3[nH]2)c1
stdin: Record comparison, field IC50: mark the lower of a and b . Selection: enter the item's label.
stdout: b
(b: 0.006 µM, a: 0.021 µM)

(a) Cc1ccc(-n2nccn2)c(C(=O)N2CCC[C@@]2(C)c2nc3cc(C)c(C)cc3[nH]2)n1
(b) C=C1C[C@@H](c2nc3ccc(Cl)c(C)c3[nH]2)N(C(=O)c2nc(C)sc2-c2cccc(C(F)(F)F)c2)C1
(c) Cc1ccc(-c2nc(C)sc2C(=O)N2CC[C@H](C)[C@H]2c2nc3cc(Cl)c(C)cc3[nH]2)cc1
(d) COc1ccc2nc([C@@H]3CCCN3C(=O)c3c(C)cccc3-n3nccn3)[nH]c2c1
stdin: List from greatest to least IC50. Please, when replying, give the labels in the order that was requested.
stdout: d, a, c, b

(I) Cc1nc(C(=O)N2CC[C@H](C)[C@H]2c2nc3c(F)cccc3[nH]2)c(-c2cccc(Cl)c2)s1
(II) Cc1nc(C(=O)N2CC[C@H](C)[C@H]2c2nc3cc(F)c(F)cc3[nH]2)c(-c2cccc(Cl)c2)s1
(III) COc1ccccc1-c1ccc(C)cc1C(=O)N1CCC[C@@]1(C)c1nc2cc(C(F)(F)F)ccc2[nH]1
(IV) COc1cc2nc([C@]3(C)CCCN3C(=O)c3cncnc3-c3ccccc3)[nH]c2cc1OC
stdin: Ascending by IC50, please: list the compounds accordingly. Please, when replying, give the labels in the order that was requested.
stdout: II, I, III, IV

(A) COc1cc2nc([C@]3(C)CCCN3C(=O)c3cc(C)ccc3-n3nccn3)n(CC3CC3)c2cc1OC
(B) C=C1C[C@@H](c2nc3c(C)cccc3[nH]2)N(C(=O)c2nc(C)sc2-c2ccc(C)c(C)c2)C1
(C) Cc1nc(C(=O)N2CC[C@H](C)[C@H]2c2nc3c(C(F)(F)F)cccc3[nH]2)c(-c2cc(F)cc(F)c2)s1
(D) COC(=O)c1cccc2nc([C@@H]3[C@@H](C)CCN3C(=O)c3nc(C)sc3-c3cccc(Cl)c3)[nH]c12
stdin: Ascending by IC50, please: list the compounds accordingly. Please, when replying, give the labels in the order that was requested.
stdout: B, C, D, A
(B: 0.004 µM, C: 0.013 µM, D: 0.026 µM, A: 0.039 µM)

(I) COc1ccc(-c2ccccc2C(=O)N2CCC[C@@]2(C)c2nc3c(C)c(C)ccc3[nH]2)cc1
(II) COc1ccc(-c2sc(C)nc2C(=O)N2CC[C@H](C)[C@H]2c2nc3c(C(F)(F)F)cccc3[nH]2)cc1
(III) Cc1nc(C(=O)N2CC[C@H](C)[C@H]2c2nc3c(C)c(Cl)ccc3[nH]2)c(-c2cc(F)cc(F)c2)s1
(IV) COc1cccc(-c2ccccc2C(=O)N2CCC[C@@]2(C)c2nc3c(C)c(C)ccc3[nH]2)c1
stdin: List from greatest to least IC50. Please, when replying, give the labels in the order that was requested.
stdout: IV, I, II, III
(IV: 0.057 µM, I: 0.03 µM, II: 0.004 µM, III: 0.0009 µM)

(a) COc1cccc(-c2sc(C)nc2C(=O)N2CC[C@H](C)[C@H]2c2nc3cc(C(F)(F)F)ccc3[nH]2)c1
(b) Cc1ccc(-n2cccn2)c(C(=O)N2CCC[C@@]2(C)c2nc3cc(C)c(C)cc3[nH]2)c1
(c) CSc1ccc2[nH]c([C@@H]3CCCN3C(=O)c3c(-n4nccn4)ccc(C)c3F)nc2c1
(d) Cc1nc(C(=O)N2CCCC2c2nc3c(C(F)(F)F)cc(C(F)(F)F)cc3[nH]2)c(-c2ccccc2)s1 (centres unmarked)
stdin: Ascending by IC50, please: list the compounds accordingly. Please, when replying, give the labels in the order that was requested.
stdout: a, b, d, c
(a: 0.005 µM, b: 0.042 µM, d: 0.191 µM, c: 0.486 µM)

(P) Cc1ccc(-c2ccccc2F)c(C(=O)N2CCC[C@@]2(C)c2nc3cc(C(F)(F)F)ccc3[nH]2)c1
(Q) CSc1cccc2nc([C@@H]3CCCN3C(=O)c3nc(C)sc3-c3ccc(Br)cc3)[nH]c12
stdin: Record comparison, field IC50: mark the lower of P and Q . Selection: enter the item's label.
stdout: P

(a) C=C1C[C@@H](c2nc3cc(OC)ccc3[nH]2)N(C(=O)c2nc(C3CC3)sc2-c2ccc(C)cc2)C1
(b) C=C1C[C@@H](c2nc3c(Cl)cccc3[nH]2)N(C(=O)c2nc(C)sc2-c2ccc(C)c(C)c2)C1
stdin: Record comparison, field IC50: mark the lower of a and b . Selection: enter the item's label.
stdout: b
